What Ki was measured for each of the following?
study-system: isolated recombinant JAK2 kinase domain (Homo sapiens, UniProt O60674)
Construct: The activity of the isolated recombinant JAK1 and JAK2 kinase domain was measured
Sequence (O60674 849-1124 limits assumed): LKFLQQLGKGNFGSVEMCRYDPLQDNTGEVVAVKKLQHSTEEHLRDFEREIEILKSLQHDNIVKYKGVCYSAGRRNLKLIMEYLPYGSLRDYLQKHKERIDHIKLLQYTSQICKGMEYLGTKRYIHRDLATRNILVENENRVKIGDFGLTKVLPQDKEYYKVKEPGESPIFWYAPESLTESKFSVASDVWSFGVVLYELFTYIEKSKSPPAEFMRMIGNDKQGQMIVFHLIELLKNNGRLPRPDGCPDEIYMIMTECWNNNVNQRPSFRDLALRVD
assay: JAK2 enzyme assay (Caliper LabChip, Ki)
condition-set: 25 μM ATP
Numbers only, in nM.

Example cases with answers are listed next.
- molecule-smiles: "CSc1ccc(OC(F)F)c(-c2nn(CC(=O)N3CCN(CCN4CCOCC4)CC3)cc2NC(=O)c2cnn3cccnc23)c1"
  unit-abbreviation: "nM"
  Ki: 0.5
- molecule-smiles: "CC(C)Sc1ccc(OC(F)F)c(-c2nn(CC(=O)N3CCC(N4CC(C#N)C4)CC3)cc2NC(=O)c2cnn3cccnc23)c1"
  unit-abbreviation: "nM"
  Ki: 0.99

Please report Ki for every entry that follows.
1. COC(=O)N1CCN(CC2CCN(C(=O)Cn3cc(NC(=O)c4cnn5cccnc45)c(-c4cc(SC(C)C)ccc4OC(F)F)n3)CC2)CC1
2. CS(=O)(=O)c1ccc(OC(F)F)c(-c2n[nH]cc2NC(=O)c2cnn3cccnc23)c1
3. CC(C)Sc1ccc(OC(F)F)c(-c2nn(CC(=O)N3CCN(CC4CCOCC4)CC3)cc2NC(=O)c2cnn3cccnc23)c1
4. CSc1ccc(OC(F)F)c(-c2nn(CC(=O)N3CCN(C4CCN(CC(=O)N(C)C)CC4)CC3)cc2NC(=O)c2cnn3cccnc23)c1
5. CC(C)Sc1ccc(OC(F)F)c(-c2nn(CC(=O)N3CCC(N4CCN(C)CC4)CC3)cc2NC(=O)c2cnn3cccnc23)c1
6. CSc1ccc(OC(F)F)c(-c2nn(CC(=O)N3CCC(CN4CCN(CC(=O)N(C)C)C[C@@H]4C)CC3)cc2NC(=O)c2cnn3cccnc23)c1
7. CC(C)Sc1ccc(OC(F)F)c(-c2nn(CC(=O)N3CCN(CC4CCN(CC(=O)N5CCOCC5)CC4)CC3)cc2NC(=O)c2cnn3cccnc23)c1
8. CSc1ccc(OC(F)F)c(-c2nn(C)cc2NC(=O)c2cnn3cccnc23)c1

1. 1.4
2. 0.16
3. 0.87
4. 0.78
5. 1.8
6. 0.63
7. 1.9
8. 0.071

Please report Ki for every entry that follows.
1. O=C(Nc1cn(CC(=O)N2CCC(CN3CCOCC3)CC2)nc1-c1cc(SC2COC2)ccc1OC(F)F)c1cnn2cccnc12
2. CCN1CCN(C(=O)Cn2cc(NC(=O)c3cnn4cccnc34)c(-c3cc(SC)ccc3OC(F)F)n2)CC1
3. CSc1ccc(OC(F)F)c(-c2nn(CC(=O)N3CCC(N4CCOCC4)CC3)cc2NC(=O)c2cnn3cccnc23)c1
4. CC(C)Sc1ccc(OC(F)F)c(-c2nn(CC(=O)N3CCN(CCCC#N)CC3)cc2NC(=O)c2cnn3cccnc23)c1

1.5
0.61
0.4
0.75

* * *

What pKi was measured for each of the following?
study-system: isolated recombinant JAK2 kinase domain (Homo sapiens, UniProt O60674)
Construct: The activity of the isolated recombinant JAK1 and JAK2 kinase domain was measured
assay: JAK2 enzyme assay (Caliper LabChip, Ki)
condition-set: 25 μM ATP
One number for each entry, as −log10 of the molar value.

Example cases with answers are listed next.
- compound: "COCCN1CCN(C(=O)Cn2cc(NC(=O)c3cnn4cccnc34)c(-c3cc(SC(C)C)ccc3OC(F)F)n2)CC1 [Example 116]"
  pKi: 9.00
- compound: "COC(=O)N1CCN(CC2CCN(C(=O)Cn3cc(NC(=O)c4cnn5cccnc45)c(-c4cc(SC5COC5)ccc4OC(F)F)n3)CC2)CC1 [Example 191]"
  pKi: 9.00
- compound: "CNC(=O)[C@@H]1CCCN1C1CCN(C(=O)Cn2cc(NC(=O)c3cnn4cccnc34)c(-c3cc(SC)ccc3OC(F)F)n2)CC1 [Example 52]"
  pKi: 9.36
- compound: "CC(C)Sc1ccc(OC(F)F)c(-c2nn(CC(=O)N3CCC(N4CCn5cncc5C4)CC3)cc2NC(=O)c2cnn3cccnc23)c1 [Example 139]"
  pKi: 9.08
- compound: "O=C(Nc1c[nH]nc1-c1cc(SC2CC2)ccc1OC(F)F)c1cnn2cccnc12 [Example 160]"
  pKi: 10.25
- compound: "CC(C)Sc1ccc(OC(F)F)c(-c2nn(CC(=O)N3CCN(C4CCSCC4)CC3)cc2NC(=O)c2cnn3cccnc23)c1 [Example 119]"
  pKi: 9.02

Now consider a different compound.
// lookup pKi for CSc1ccc(OC(F)F)c(-c2nn(CC(=O)N3CCC(N(C)CC(=O)N4CCCC4)CC3)cc2NC(=O)c2cnn3cccnc23)c1 [Example 14] 9.17

* * *

study-system: isolated recombinant JAK1 kinase domain (Homo sapiens)
Construct: The activity of the isolated recombinant JAK1 and JAK2 kinase domain was measured
assay: JAK1 enzyme assay (Caliper LabChip, Ki)
Format: biochemical
condition-set: recombinant JAK1 kinase domain, 25 μM ATP
Protocol: JAK Enzyme Assays were Carried Out as Follows: The activity of the isolated recombinant JAK1 and JAK2 kinase domain was measured by monitoring phosphorylation of a peptide derived from JAK3 (Val-Ala-Leu-Val-Asp-Gly-Tyr-Phe-Arg-Leu-Thr-Thr, fluorescently labeled on the N-terminus with 5-carboxyfluorescein) using the Caliper LabChip® technology (Caliper Life Sciences, Hopkinton, Mass.). […]
value-type: Ki (nM)
Numbers only, in nM.

Example cases with answers are listed next.
- molecule-smiles: "CC(C)Sc1ccc(OC(F)F)c(-c2nn(CC(=O)N3CCC(N4CC[S+]([O-])CC4)CC3)cc2NC(=O)c2cnn3cccnc23)c1"
  Ki / nM: 0.22
- molecule-smiles: "CC(C)Sc1ccc(OC(F)F)c(-c2nn(CC(=O)N3CCC(N4CC(C#N)C4)CC3)cc2NC(=O)c2cnn3cccnc23)c1"
  Ki / nM: 0.42

Now consider a different compound.
// lookup Ki for CN(C1CCN(C(=O)Cn2cc(NC(=O)c3cnn4cccnc34)c(-c3cc(SC4COC4)ccc3OC(F)F)n2)CC1)C1COC1 0.54

* * *

study-system: isolated recombinant JAK2 kinase domain (Homo sapiens)
Construct: The activity of the isolated recombinant JAK1 and JAK2 kinase domain was measured
assay: JAK2 enzyme assay (Caliper LabChip, Ki)
condition-set: 25 μM ATP
What Ki was measured for each of the following?
A complete answer gives the number and then names the unit.

Example cases with answers are listed next.
- compound: "CC(C)Sc1ccc(OC(F)F)c(-c2nn(CC(=O)N3CCC(N4CCn5ccnc5C4)CC3)cc2NC(=O)c2cnn3cccnc23)c1"
  Ki: "0.72 nM"
- compound: "CSc1ccc(OC(F)F)c(-c2nn(CC(=O)N3CCC(N4CCSCC4)CC3)cc2NC(=O)c2cnn3cccnc23)c1"
  Ki: "0.32 nM"
- compound: "CSc1ccc(OC(F)F)c(-c2nn(CC(=O)N3CCC(N(C)CCCC#N)CC3)cc2NC(=O)c2cnn3cccnc23)c1"
  Ki: "0.53 nM"

Please report Ki for every entry that follows.
1. CN1CCN(C2CCN(C(=O)Cn3cc(NC(=O)c4cnn5cccnc45)c(-c4cc(SC5COC5)ccc4OC(F)F)n3)CC2)CC1
2. C[S+]([O-])c1ccc(OC(F)F)c(-c2n[nH]cc2NC(=O)c2cnn3cccnc23)c1 (stereo not shown)
3. CC(=O)N1CCN(CC2CCN(C(=O)Cn3cc(NC(=O)c4cnn5cccnc45)c(-c4cc(SC5CC5)ccc4OC(F)F)n3)CC2)CC1
4. CC(C)Sc1ccc(OC(F)F)c(-c2nn(CC(=O)N3CCC(N4CCCC(C#N)C4)CC3)cc2NC(=O)c2cnn3cccnc23)c1 (stereo not shown)

1: 3.8 nM; 2: 0.57 nM; 3: 0.91 nM; 4: 1.7 nM

* * *

study-system: LRRK2 (Homo sapiens)
Sequence (Q5S007 970-2527 limits assumed): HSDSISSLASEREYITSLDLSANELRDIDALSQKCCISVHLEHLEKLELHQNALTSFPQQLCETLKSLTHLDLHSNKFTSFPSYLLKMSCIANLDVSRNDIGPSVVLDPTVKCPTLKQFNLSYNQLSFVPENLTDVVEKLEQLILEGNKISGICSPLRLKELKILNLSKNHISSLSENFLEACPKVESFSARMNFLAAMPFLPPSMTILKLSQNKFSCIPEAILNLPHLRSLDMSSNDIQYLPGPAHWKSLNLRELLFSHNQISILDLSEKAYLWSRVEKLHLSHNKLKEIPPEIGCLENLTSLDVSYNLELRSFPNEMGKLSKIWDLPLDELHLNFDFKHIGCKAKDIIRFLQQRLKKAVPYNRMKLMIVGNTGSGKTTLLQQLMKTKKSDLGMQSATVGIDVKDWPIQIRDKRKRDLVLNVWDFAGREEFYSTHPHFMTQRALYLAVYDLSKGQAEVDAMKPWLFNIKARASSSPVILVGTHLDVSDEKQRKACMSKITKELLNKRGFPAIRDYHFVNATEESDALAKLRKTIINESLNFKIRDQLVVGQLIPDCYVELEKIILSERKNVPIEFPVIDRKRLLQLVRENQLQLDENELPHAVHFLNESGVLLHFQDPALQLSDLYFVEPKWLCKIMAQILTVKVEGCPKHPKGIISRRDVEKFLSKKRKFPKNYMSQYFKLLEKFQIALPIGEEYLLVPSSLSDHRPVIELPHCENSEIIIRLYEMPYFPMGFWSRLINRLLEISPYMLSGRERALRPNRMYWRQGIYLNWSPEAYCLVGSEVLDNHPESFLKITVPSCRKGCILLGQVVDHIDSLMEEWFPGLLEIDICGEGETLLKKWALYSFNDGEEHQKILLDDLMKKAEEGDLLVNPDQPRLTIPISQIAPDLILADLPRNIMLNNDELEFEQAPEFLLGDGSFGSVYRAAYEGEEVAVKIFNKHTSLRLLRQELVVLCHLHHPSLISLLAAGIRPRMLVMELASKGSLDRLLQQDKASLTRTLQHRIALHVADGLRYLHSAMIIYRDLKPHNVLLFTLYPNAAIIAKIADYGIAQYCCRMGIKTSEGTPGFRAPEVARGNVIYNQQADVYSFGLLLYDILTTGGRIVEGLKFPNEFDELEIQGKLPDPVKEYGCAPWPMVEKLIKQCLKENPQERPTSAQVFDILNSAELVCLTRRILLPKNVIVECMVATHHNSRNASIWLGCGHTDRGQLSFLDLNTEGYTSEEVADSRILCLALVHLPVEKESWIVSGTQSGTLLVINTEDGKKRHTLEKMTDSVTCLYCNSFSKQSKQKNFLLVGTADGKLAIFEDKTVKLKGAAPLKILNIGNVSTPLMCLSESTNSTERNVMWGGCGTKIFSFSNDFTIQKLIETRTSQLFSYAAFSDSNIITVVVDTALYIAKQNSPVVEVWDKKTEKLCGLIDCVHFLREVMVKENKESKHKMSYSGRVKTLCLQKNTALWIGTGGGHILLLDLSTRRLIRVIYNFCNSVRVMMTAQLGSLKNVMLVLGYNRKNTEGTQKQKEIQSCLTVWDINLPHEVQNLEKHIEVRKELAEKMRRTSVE
assay: LRRK2 assay (Life Technologies Adapta, SelectScreen Profiling, IC50)
Type: biochemical
condition-set: selectivity ratio LRRK2 IC50 over JAK1 Ki
value-type: Ratio (LRRK 2 IC50: JAK1 Ki)
Give bare numbers.

- compound: "CSc1ccc(OC(F)F)c(-c2nn(CC(=O)N3CCC(NCC(C)(C)C#N)CC3)cc2NC(=O)c2cnn3cccnc23)c1"
  observed: 16750
- compound: "Cn1cc(NC(=O)c2cnn3cccnc23)c(-c2cc(Cl)ccc2OC(F)F)n1 [A, reference compound]"
  observed: 449
- compound: "CSc1ccc(OC(F)F)c(-c2nn(CC(=O)N3CCC(N4CCC[C@@H](C#N)C4)CC3)cc2NC(=O)c2cnn3cccnc23)c1"
  observed: 8500

// lookup Ratio (LRRK 2 IC50: JAK1 Ki) for CC(C)Sc1ccc(OC(F)F)c(-c2nn(C)cc2NC(=O)c2cnn3cccnc23)c1 8880

* * *

study-system: isolated recombinant JAK1 kinase domain (Homo sapiens, UniProt P23458)
Construct: The activity of the isolated recombinant JAK1 and JAK2 kinase domain was measured
Sequence (P23458 875-1153 limits assumed): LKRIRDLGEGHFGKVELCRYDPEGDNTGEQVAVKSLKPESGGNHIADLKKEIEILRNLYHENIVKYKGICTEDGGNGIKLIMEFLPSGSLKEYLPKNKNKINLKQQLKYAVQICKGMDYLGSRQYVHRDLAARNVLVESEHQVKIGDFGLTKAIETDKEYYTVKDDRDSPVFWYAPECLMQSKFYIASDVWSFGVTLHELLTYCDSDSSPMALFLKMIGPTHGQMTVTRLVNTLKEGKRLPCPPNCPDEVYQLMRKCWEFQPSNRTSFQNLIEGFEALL
assay: JAK1 enzyme assay (Caliper LabChip, Ki)
Type: biochemical
condition-set: recombinant JAK1 kinase domain, 25 μM ATP
Criterion: Ki strictly less than 0.3 nM. Met: True. Not met: False.

- molecule: "COC(=O)N1CCN(CC2CCN(C(=O)Cn3cc(NC(=O)c4cnn5cccnc45)c(-c4cc(SC5COC5)ccc4OC(F)F)n3)CC2)CC1 [Example 191]"
  class-label: "False"

Bench note: check whether CC(C)Sc1ccc(OC(F)F)c(-c2nn(CC(=O)N3CCN(CCO)CC3)cc2NC(=O)c2cnn3cccnc23)c1 [Example 131] shows Ki below 0.3 nM False

Bench note: check whether CSc1ccc(OC(F)F)c(-c2nn(CC(=O)N3CCC(N4CCN(C5COC5)CC4)CC3)cc2NC(=O)c2cnn3cccnc23)c1 [Example 69] shows Ki below 0.3 nM False

Bench note: check whether CNCCn1cc(NC(=O)c2cnn3cccnc23)c(-c2cc(SC3COC3)ccc2OC(F)F)n1 [Example 178] shows Ki below 0.3 nM False

Bench note: check whether CSc1ccc(OC(F)F)c(-c2nn(Cc3cn(C4CCN(C5COC5)CC4)nn3)cc2NC(=O)c2cnn3cccnc23)c1 [Example 90] shows Ki below 0.3 nM False

Bench note: check whether CC(C)Sc1ccc(OC(F)F)c(-c2nn(CC(=O)N3CCC(N4CCN(CC(=O)N5CCOCC5)CC4)CC3)cc2NC(=O)c2cnn3cccnc23)c1 [Example 152] shows Ki below 0.3 nM False

Bench note: check whether CSc1ccc(OC(F)F)c(-c2nn(CC(=O)N3CCC(NCC4(C#N)CC4)CC3)cc2NC(=O)c2cnn3cccnc23)c1 [Example 41] shows Ki below 0.3 nM True
